study target: UniProtKB A0AA94GZI5
Sequence (A0AA94GZI5 1-849): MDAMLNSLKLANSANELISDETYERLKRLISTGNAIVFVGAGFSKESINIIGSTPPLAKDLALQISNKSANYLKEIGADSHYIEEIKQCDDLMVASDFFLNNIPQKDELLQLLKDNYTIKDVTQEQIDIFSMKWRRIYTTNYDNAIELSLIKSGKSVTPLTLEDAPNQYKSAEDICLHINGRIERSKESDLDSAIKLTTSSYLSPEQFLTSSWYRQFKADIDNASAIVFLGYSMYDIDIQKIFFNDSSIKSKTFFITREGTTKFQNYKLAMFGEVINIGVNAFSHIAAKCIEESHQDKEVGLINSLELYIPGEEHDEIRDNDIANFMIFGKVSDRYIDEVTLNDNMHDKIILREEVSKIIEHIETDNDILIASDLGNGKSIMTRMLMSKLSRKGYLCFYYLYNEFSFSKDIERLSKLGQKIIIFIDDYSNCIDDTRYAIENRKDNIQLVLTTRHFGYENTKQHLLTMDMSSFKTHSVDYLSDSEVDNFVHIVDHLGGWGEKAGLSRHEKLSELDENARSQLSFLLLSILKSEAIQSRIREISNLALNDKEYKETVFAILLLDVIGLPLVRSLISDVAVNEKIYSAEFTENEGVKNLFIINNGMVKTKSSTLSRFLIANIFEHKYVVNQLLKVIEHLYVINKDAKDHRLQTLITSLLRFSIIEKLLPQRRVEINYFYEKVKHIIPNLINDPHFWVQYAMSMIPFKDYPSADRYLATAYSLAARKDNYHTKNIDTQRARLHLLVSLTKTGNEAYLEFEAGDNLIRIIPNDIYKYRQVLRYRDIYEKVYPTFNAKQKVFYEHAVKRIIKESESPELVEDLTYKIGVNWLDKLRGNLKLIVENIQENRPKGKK
experimental readout: Ki (µM)
Give bare numbers, in µM.

query: # get_value(readout='Ki', item= Nc1ncnc2c1ncn2[C@@H]1O[C@H](COP(=O)(O)OP(=O)(O)OP(=O)(O)O)[C@@H](O)[C@H]1O )
result: 1740
